- experimentalProtocol: Quantitative High-Throughput drug screen in 47 multiple myeloma cell lines against the NCATS MIPE library collection: JJN3_DSMZ cell viability assay (AID 1918966; further: nearly all actives have a fitted effect of over 50% in size)
- conditionSet: JJN3 myeloma cells viability, CellTiter-Glo ATP, 48 h; series mostly up to 45.8 µM
Results filed as inconclusive are left out. Active and inactive are the calls of the source. The call rests on the fitted dose curve; in most records, active means well fitted cell-killing curve with a large enough effect; inconclusive means small, poorly fitted or top-dose-only effect, or effect the other way; inactive means no such curve, though single readings can be large or run the other way.
Outcome (select one): active, inactive

Each molecule tested received a call. Report the one for "CCCOc1ccc2nc(NC(=O)OC)[nH]c2c1" .
active

Recorded test call requested for "O=c1c(O)c(-c2cc(O)c(O)c(O)c2)oc2cc(O)cc(O)c12"
active

Recorded call for Clc1ccc(C(Cn2ccnc2)OCc2c(Cl)cccc2Cl)c(Cl)c1 (stereo not drawn) ?
active

Record lookup: outcome of this test for "CCOC(=O)C1=C(O)C(=O)N(Cc2ccccc2)C1" ?
active

Record lookup: outcome of this test for "CNC[C@H](O)c1ccc(O)c(O)c1" ?
active
